- target_or_test_system: human galectin-1 (Gal-1, full length) (Homo sapiens, UniProt P09382)
- Construct: Gal-1 is a prototype galectin consisting of a single CRD and was used in full length; 6xHis tag with TEV protease site (N, cleaved yes); made in house; host or cells: BL21 Escherichia coli (pET-15b)
- Sequence (P09382 2-135): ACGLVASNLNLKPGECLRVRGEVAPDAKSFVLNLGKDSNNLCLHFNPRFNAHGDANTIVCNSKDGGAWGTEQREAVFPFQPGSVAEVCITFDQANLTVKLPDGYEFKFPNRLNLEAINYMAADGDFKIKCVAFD
- measurement_protocol: Competitive fluorescence polarization assay, Gal-1
- Format: binding
- experimental_setup: CSV supplement, unrounded mean; read-out: Gal1_Kd_mean_uM
pKd: −log10 of the molar value.
readout: pKd

COC(=O)c1cccc(N(C(C)=O)[C@@H]2O[C@H](CO)[C@@H](O[C@@H]3O[C@H](CO)[C@H](O)[C@H](O)[C@H]3O)[C@H](O)[C@H]2O)c1
3.36

A. CC(=O)N(c1ccccc1)[C@@H]1O[C@H](CO)[C@@H](O[C@@H]2O[C@H](CO)[C@H](O)[C@H](O)[C@H]2O)[C@H](O)[C@H]1O
B. CC(=O)N(c1ccc(F)cc1)[C@@H]1O[C@H](CO)[C@@H](O[C@@H]2O[C@H](CO)[C@H](O)[C@H](O)[C@H]2O)[C@H](O)[C@H]1O
QUERY: Sorting by pKd in descending order, would A or B appear first? Your choice should be expressed through its label.
RESULT: B
